- ASSAY_PROCEDURE: Solubility (Test F), McIlvaine buffer pH 6.5
- Format: physicochemical
- CONDITION_NOTES: disodium hydrogenphosphate-citric acid (McIlvaine) buffer, 25 °C, pH 6.5, aqueous buffer, thermodynamic from solid, McIlvaine buffer pH 6.5, 25° C., 24 to 72 h; theoretical maximum 200 μM
ASSAY_ENDPOINT: solubility (µg/mL)

// worked examples, solubility included
- OC[C@@H](O)CNc1nnc(-c2c(O)cccc2F)c2ccccc12 [Example 4]: 23.2
- OC[C@@H](O)CNc1nnc(-c2ccc(Cl)cc2O)c2ccccc12 [Example 5]: 7.9
- CC(C)(O)CNc1nnc(-c2ccc(Cl)cc2O)c2ccncc12 [Example 71]: 21.9
- C[C@]1(O)CCC[C@@H](Nc2nnc(-c3ccc(C(F)(F)F)cc3O)c3ccncc23)C1 [Example 62]: 25.7

(P) C[C@]1(O)C[C@@H](Nc2nnc(-c3c(O)cc(F)cc3F)c3ccncc23)C1 [Example 69]
(Q) Oc1cc(Cl)ccc1-c1nnc(N[C@@H]2CCC[C@H](O)C2)c2cnccc12 [Example 44]
Exercise: Field: entry with larger solubility (options P / Q ). In your reply, give the label of the chosen option.
Key: Q
(Q: 40.1 µg/mL, P: 13.6 µg/mL)

* * *

The reader will find IC50 measurements below, all made with UniProt Q96P20.
Sequence (Q96P20 whole entry): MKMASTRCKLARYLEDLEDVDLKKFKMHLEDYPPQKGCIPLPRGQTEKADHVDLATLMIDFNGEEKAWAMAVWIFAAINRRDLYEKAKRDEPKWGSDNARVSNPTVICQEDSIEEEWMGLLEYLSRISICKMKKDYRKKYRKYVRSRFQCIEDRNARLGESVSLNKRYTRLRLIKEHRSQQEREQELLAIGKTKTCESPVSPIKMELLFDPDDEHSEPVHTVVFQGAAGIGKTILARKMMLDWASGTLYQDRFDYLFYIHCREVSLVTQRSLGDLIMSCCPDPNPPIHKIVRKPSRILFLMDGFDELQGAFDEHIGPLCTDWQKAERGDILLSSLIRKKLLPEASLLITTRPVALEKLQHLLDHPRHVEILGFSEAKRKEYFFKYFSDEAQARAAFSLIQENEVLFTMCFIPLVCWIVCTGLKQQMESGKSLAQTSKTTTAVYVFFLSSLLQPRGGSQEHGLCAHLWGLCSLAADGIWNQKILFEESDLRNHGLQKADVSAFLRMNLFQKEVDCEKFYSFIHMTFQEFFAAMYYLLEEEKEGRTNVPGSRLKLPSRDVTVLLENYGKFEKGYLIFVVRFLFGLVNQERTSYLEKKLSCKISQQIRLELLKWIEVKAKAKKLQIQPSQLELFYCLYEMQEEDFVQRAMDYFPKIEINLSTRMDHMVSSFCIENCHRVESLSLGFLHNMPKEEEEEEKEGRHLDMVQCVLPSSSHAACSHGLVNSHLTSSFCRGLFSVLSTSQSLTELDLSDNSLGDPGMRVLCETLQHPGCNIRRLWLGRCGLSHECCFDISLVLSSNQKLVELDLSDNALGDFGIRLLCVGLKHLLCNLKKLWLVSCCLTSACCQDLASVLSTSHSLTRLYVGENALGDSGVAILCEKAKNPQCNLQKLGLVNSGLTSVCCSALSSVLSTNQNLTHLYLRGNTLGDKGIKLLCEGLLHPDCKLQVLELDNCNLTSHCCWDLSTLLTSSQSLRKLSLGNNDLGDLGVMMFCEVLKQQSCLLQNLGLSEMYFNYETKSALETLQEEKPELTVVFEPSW
ASSAY_ENDPOINT: IC50 (nM)

// worked examples, IC50 included
• Oc1cc(C(F)(F)F)ccc1-c1nnc(N[C@@H]2CCC[C@@H]2O)c2ccccc12 [Example 19] = 20
• Oc1cc(C(F)(F)F)ccc1-c1nnc(N[C@H]2C[C@@H](O)C2)c2ccccc12 [Example 33] = 122
• CC(C)(O)CNc1nnc(-c2ccc(C(F)(F)F)cc2O)c2ccncc12 [Example 70] = 26
• C[C@]1(O)CC[C@@H](Nc2nnc(-c3ccc(C(F)(F)F)cc3O)c3ccncc23)C1 [Example 39] = 18
• Oc1cc(C(F)(F)F)ccc1-c1nnc(N[C@@H]2CC[C@@H](O)C2)c2cnccc12 [Example 59] = 9

(1) Oc1cc(C(F)(F)F)ccc1-c1nnc(N[C@H]2CC[C@@H](O)C2)c2ccccc12 (single isomer, unassigned) [Example 35]
(2) OC[C@@H](O)CNc1nnc(-c2c(O)cc(C(F)(F)F)cc2F)c2ccccc12 [Example 7]
Exercise: Hello, I am sorting some records. Could you say if 1 or 2 has the smaller IC50 value? In your reply, give the label of the chosen option.
Key: 2
(2: 47 nM, 1: 71 nM)

* * *

- ASSAY_PROCEDURE: Solubility (Test F), McIlvaine buffer pH 6.5
- Format: physicochemical
- CONDITION_NOTES: disodium hydrogenphosphate-citric acid (McIlvaine) buffer, 25 °C, pH 6.5, aqueous buffer, thermodynamic from solid, McIlvaine buffer pH 6.5, 25° C., 24 to 72 h; theoretical maximum 200 μM
ASSAY_ENDPOINT: solubility (µg/mL)

// worked examples, solubility included
* OC[C@H](O)CNc1nnc(-c2ccc(C(F)(F)F)cc2O)c2ccccc12 [Example 12] | 36.4
* CC(C)(O)CNc1nnc(-c2c(O)cc(Cl)cc2F)c2ccncc12 [Example 73] | 14.1
* CC(C)(O)CNc1nnc(-c2c(O)cc(C(F)(F)F)cc2F)c2ccncc12 [Example 74] | 12.1
* C[C@]1(O)CC[C@@H](Nc2nnc(-c3ccc(C(F)(F)F)cc3O)c3ccncc23)C1 [Example 39] | 10.2
* Oc1cc(C(F)(F)F)ccc1-c1nnc(N[C@H]2CCC[C@@H]2O)c2ccccc12 [Example 22] | 9.2
* Oc1cc(C(F)(F)F)ccc1-c1nnc(N[C@@H]2CCC[C@H](O)C2)c2cnccc12 [Example 41] | 8.6

(1) Oc1cc(OC(F)(F)F)ccc1-c1nnc(N[C@@H]2CCCC[C@H]2O)c2cnccc12 [Example 56]
(2) Oc1cc(C(F)(F)F)ccc1-c1nnc(N[C@@H]2CCCC[C@H]2O)c2ccccc12 [Example 24]
(3) Oc1cc(C(F)(F)F)ccc1-c1nnc(N[C@@H]2CCC[C@H](O)C2)c2ncccc12 [Example 89]
Exercise: Number of molecules to sort: 3. Sort criterion: solubility, ascending. Would you mind listing the labels in the order asked for?
Key: 2, 1, 3
(2: 7.9 µg/mL, 1: 14.5 µg/mL, 3: 22.1 µg/mL)
